// provenance: ChEMBL document CHEMBL4138122

Tested on: Mus musculus
Assay: Anti-inflammatory activity in IL1-induced paw inflammation Balb/c mouse model assessed as inhibition of neutrophil migration at 10 mg/kg, po, pretreated for 30 mins followed by IL1 challenge measured after 2 hrs by spectrophotometric method
Assay type: functional
READOUT NAME: inhibition in vivo at 10 mg/kg (%)
Give bare numbers, in %.

These solved cases illustrate the format of a correct answer.
// recorded inhibition in vivo at 10 mg/kg for `CS(=O)(=O)NCC1CCN(Cc2ccc3c(c2)Nc2nccnc2S3)CC1` : 77.6

Lab note: `O=S(=O)(NC1CCN(Cc2ccc3c(c2)Nc2nccnc2S3)CC1)N1CCOCC1` gave inhibition in vivo at 10 mg/kg of 66.1

Please examine the following record next.
Consider `CS(=O)(=O)N1CCN(Cc2ccc3c(c2)Nc2nccnc2S3)CC1` . Its measured inhibition in vivo at 10 mg/kg is 53.4

----------
Target: Intercellular adhesion molecule 1 (Homo sapiens)
Sequence (P05362 whole entry): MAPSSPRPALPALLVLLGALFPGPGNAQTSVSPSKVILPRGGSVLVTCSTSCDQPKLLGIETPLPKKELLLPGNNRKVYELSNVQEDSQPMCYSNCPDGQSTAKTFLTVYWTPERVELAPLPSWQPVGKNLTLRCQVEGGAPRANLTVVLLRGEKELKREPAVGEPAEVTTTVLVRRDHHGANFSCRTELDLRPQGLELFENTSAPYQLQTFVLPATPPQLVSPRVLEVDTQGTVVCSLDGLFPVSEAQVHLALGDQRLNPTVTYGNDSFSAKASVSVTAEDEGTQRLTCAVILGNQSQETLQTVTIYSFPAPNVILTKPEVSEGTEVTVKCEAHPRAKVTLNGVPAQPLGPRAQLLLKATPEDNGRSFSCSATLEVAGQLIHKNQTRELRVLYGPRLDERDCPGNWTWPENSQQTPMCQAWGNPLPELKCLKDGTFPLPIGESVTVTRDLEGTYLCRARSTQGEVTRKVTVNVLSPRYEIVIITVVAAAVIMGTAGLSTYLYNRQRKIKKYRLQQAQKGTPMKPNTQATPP
Assay: Inhibition of ICAM1 (unknown origin)
pIC50: −log10 of the molar value.
READOUT NAME: pIC50

// sample NC(=O)C1CCCN(Cc2ccc3c(c2)Nc2nccnc2S3)C1 (configuration not stated) , its pIC50 was 5.85 to 6.57

Field pIC50 (entry `c1cnc2c(n1)Nc1cc(CN3CCC3)ccc1S2` ) reads 5.85 to 6.57

Memo: O=C(O)CC1CC2CCC(C1)N(Cc1ccc3c(c1)Nc1nccnc1S3)C2 (configuration not stated) , reported pIC50: 6.00 to 6.38

Item: `O=C(O)c1ccc(C2CCN(Cc3ccc4c(c3)Nc3nccnc3S4)CC2)cc1` | pIC50: 6.00 to 6.38

Per the record, `O=S(=O)(NC1CCN(Cc2ccc3c(c2)Nc2nccnc2S3)CC1)c1ccccc1` has pIC50 of 5.85 to 6.57

For reference, reported pIC50 for `c1cnc2c(n1)Nc1cc(CN3CCCCCC3)ccc1S2` stands at 5.85 to 6.57

// field: pIC50; key: `O=C(O)CCC1CCN(Cc2ccc3c(c2)Nc2nccnc2S3)CC1` ; value = 6.33

Given item `O=C(O)CC1CC2(CCN(Cc3ccc4c(c3)Nc3nccnc3S4)CC2)C1` , the value recorded as its pIC50 is 6.00 to 6.38

Batch lookup, pIC50 per entry.
1. CC(CCC1CCN(Cc2ccc3c(c2)Nc2nccnc2S3)CC1)C(=O)O (configuration not stated)
2. CC(=O)NC1CCN(Cc2ccc3c(c2)Nc2nccnc2S3)CC1
3. CN(C)S(=O)(=O)NC1CCN(Cc2ccc3c(c2)Nc2nccnc2S3)CC1
4. NS(=O)(=O)NC1CCN(Cc2ccc3c(c2)Nc2nccnc2S3)CC1
5. CS(=O)(=O)NCCC1CCN(Cc2ccc3c(c2)Nc2nccnc2S3)CC1

Result:
1: 6.00 to 6.38; 2: 5.85 to 6.57; 3: 5.85 to 6.57; 4: 5.85 to 6.57; 5: 5.85 to 6.57

For each entry beneath this line, provide reported pIC50.
1. CC(=O)N1CCN(Cc2ccc3c(c2)Nc2nccnc2S3)CC1
2. O=C(O)CC1C2CCCC1CN(Cc1ccc3c(c1)Nc1nccnc1S3)C2 (stereo in doubt; 64c)
3. C/C(=C\CC1CCN(Cc2ccc3c(c2)Nc2nccnc2S3)CC1)C(=O)O
4. NC(=O)C1CCN(Cc2ccc3c(c2)Nc2nccnc2S3)CC1
5. O=C(O)C1CC2(CCN(Cc3ccc4c(c3)Nc3nccnc3S4)CC2)C1

Result:
1: 5.85 to 6.57; 2: 5.52; 3: 6.38; 4: 5.85 to 6.57; 5: 6.00 to 6.38

Give one value of pIC50 per listed compound.
1. CNS(=O)(=O)NC1CCN(Cc2ccc3c(c2)Nc2nccnc2S3)CC1
2. O=C(O)C1CCN(Cc2ccc3c(c2)Nc2nccnc2S3)CC1
3. O=C(O)CC1CCN(Cc2ccc3c(c2)Nc2nccnc2S3)CC1

Result:
["5.85 to 6.57", "6.00 to 6.38", 6.28]

Sample `c1cnc2c(n1)Nc1cc(CN3CCCCC3)ccc1S2` ; pIC50 observed: 5.85 to 6.57
